Assay: Kinetic solubility of compound in PBS at pH 7.4
Assay type: physicochemical
Conditions: read-out: Kinetic_solubility
TEST_READOUT: solubility kinetic (µM)
Write down the numeric answer in µM and omit the unit.

COMPOUND_STRUCTURE: C[C@@H](c1cc(Cl)cc(Cl)c1)N1CCC(COc2cc(F)c(C(=O)NS(C)(=O)=O)cc2C2CC2)CC1
solubility kinetic / µM: 52

Proceeding to the next molecule to report its solubility kinetic.
Which solubility kinetic reading was recorded for the molecule O=C(NS(=O)(=O)N1CCC1)c1cc(C2CC2)c(OCC23CC4CC(CC(C4)C2)C3)cc1F ?
5.3

---

Assay: Metabolic stability in human hepatocytes assessed as intrinsic clearance at 1 uM measured upto 3 hrs by LC-MS/MS analysis
Type: ADME, cell-based, Hepatocyte
Conditions: read-out: CLH
TEST_READOUT: CLint scaled at 1 µM (mL/min/kg)
Write down the numeric answer in mL/min/kg and omit the unit.

Use the examples below as a reference point.
COMPOUND_STRUCTURE: O=C(NS(=O)(=O)C1COC1)c1cc(C2CC2)c(OCC23CC4CC(CC(C4)C2)C3)cc1F
CLint scaled at 1 µM / mL/min/kg: 6.7
//
COMPOUND_STRUCTURE: CS(=O)(=O)NC(=O)c1cc(C2CC2)c(OCC2CCN(C(=O)c3cc(Cl)cc(Cl)c3)CC2)cc1F
CLint scaled at 1 µM / mL/min/kg: 7.5
//
COMPOUND_STRUCTURE: CS(=O)(=O)NC(=O)c1cc(C2CC2)c(OCC2CCN(Cc3ccc(Cl)cc3)CC2)cc1F
CLint scaled at 1 µM / mL/min/kg: 15
//
COMPOUND_STRUCTURE: O=C(NS(=O)(=O)N1CCC1)c1cc(C2CC2)c(OCC23CC4CC(CC(C4)C2)C3)cc1F
CLint scaled at 1 µM / mL/min/kg: 11
//
COMPOUND_STRUCTURE: CS(=O)(=O)NC(=O)c1cc(C2CC2)c(OCC2CCN(Cc3ccccc3)CC2)cc1F
CLint scaled at 1 µM / mL/min/kg: 15
//
COMPOUND_STRUCTURE: CS(=O)(=O)NC(=O)c1cc(C2CC2)c(OCC23CC4CC(CC(C4)C2)C3)cc1F
CLint scaled at 1 µM / mL/min/kg: 17

Which CLint scaled at 1 µM reading was recorded for the compound CS(=O)(=O)NC(=O)c1cc(C2CC2)c(OCC2CCN(Cc3cc(Cl)cc(Cl)c3)CC2)cc1F ?
15

Which CLint scaled at 1 µM reading was recorded for the compound CS(=O)(=O)NC(=O)c1cc(C2CC2)c(OCC2CN(C(c3ccccc3)c3ccccc3)C2)cc1F ?
15

Which CLint scaled at 1 µM reading was recorded for the compound O=C(NS(=O)(=O)C1CC1)c1cc(C2CC2)c(OCC23CC4CC(CC(C4)C2)C3)cc1F ?
16

Which CLint scaled at 1 µM reading was recorded for the compound C[C@H](c1cc(Cl)cc(Cl)c1)N1CCC(COc2cc(F)c(C(=O)NS(C)(=O)=O)cc2C2CC2)CC1 ?
16

Which CLint scaled at 1 µM reading was recorded for the compound O=C(NS(=O)(=O)N1CCOCC1)c1cc(C2CC2)c(OCC23CC4CC(CC(C4)C2)C3)cc1F ?
12

---

Readings of CLint scaled at 1 µM for the listed molecules
Assay: Metabolic stability in human liver microsomes assessed as intrinsic clearance at 1 uM measured upto 60 mins in presence of NADPH by LC-MS/MS analysis
Type: ADME, Microsome
Settings: read-out: CLH
Write down the numeric answer in mL/min/kg and omit the unit.

Use the examples below as a reference point.
COMPOUND_STRUCTURE: O=C(NS(=O)(=O)N1CCC1)c1cc(C2CC2)c(OCC23CC4CC(CC(C4)C2)C3)cc1F
MEASUREMENT_UNITS: mL/min/kg
CLint scaled at 1 µM: 10

COMPOUND_STRUCTURE: C[C@H](c1cc(Cl)cc(Cl)c1)N1CCC(COc2cc(F)c(C(=O)NS(C)(=O)=O)cc2C2CC2)CC1
MEASUREMENT_UNITS: mL/min/kg
CLint scaled at 1 µM: 17

Which CLint scaled at 1 µM reading was recorded for the molecule CS(=O)(=O)NC(=O)c1cc(C2CC2)c(OCC23CC4CC(CC(C4)C2)C3)cc1F ?
19

Which CLint scaled at 1 µM reading was recorded for the molecule CS(=O)(=O)NC(=O)c1cc(C2CC2)c(OCC2CCN(Cc3cc(Cl)cc(Cl)c3)CC2)cc1F ?
9.7
